Test system: 435261-313-R-J1-PDC tumor spheroid viability;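 further: spheroids exposed to compounds for 7 days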
assay.text: Anticancer human tumor 435261-313-R-J1-PDC patient-derived colon adenocarcinoma cell line growth inhibition [PI3K]
test.parameters: curve of compound; spheroids with HUVEC and MSC
pIC50: −log10 of the molar value.
observed.property: pIC50

Asked: Could you share which pIC50 value was measured for C=CC(=O)N1CCN(c2nc(=O)n(-c3c(C)ccnc3C(C)C)c3nc(-c4c(O)cccc4F)c(F)cc23)C(C)C1 (configuration not stated) ?
Given back: < 5.00

Asked: C[C@@H](NC(=O)c1ncnc(N)c1Cl)c1ncc(C(=O)Nc2cc(C(F)(F)F)c(Cl)cn2)s1 ?
Given back: < 5.00

Asked: CC(=O)c1c(C)c2cnc(Nc3ccc(N4CCNCC4)cn3)nc2n(C2CCCC2)c1=O ?
Given back: < 7.00

Asked: Cn1ncnc1[C@H]1c2n[nH]c(=O)c3cc(F)cc(c23)N[C@@H]1c1ccc(F)cc1 ?
Given back: < 7.00

Asked: Cn1cnc2c(F)c(Nc3ccc(Br)cc3Cl)c(C(=O)NOCCO)cc21 ?
Given back: > 8.02

Asked: CC(Cn1ccc(-c2ccc(C#N)c(Cl)c2)n1)NC(=O)c1cc(C(C)O)[nH]n1 (configuration not stated) ?
Given back: < 5.00

Asked: CNC(=O)c1ccc(N2C(=S)N(c3ccc(C#N)c(C(F)(F)F)c3)C(=O)C2(C)C)cc1F ?
Given back: < 5.00
